System: DMS 114 small cell lung
TEST DESCRIPTION: NCI tumour cell line growth inhibition, 48 h
Would you mind telling me the reported TGI of each entry?

[N-]=[N+]=NC1C(Br)C(=O)NC(=O)N1[C@H]1C[C@H](O)[C@@H](CO)O1 (stereo not given in full) ... > 100 µM
C=C1CC[C@@H]2C(C)(C)CCC[C@@]2(C)[C@@H]1Cc1cc(O)ccc1O ... 4.1 µM
COC(=O)CC1C(=O)OCc2c1cc1n(c2=O)Cc2c-1nc1ccccc1c2OC (stereo not given) ... > 100 µM

Field: TGI. Fill in for each record below.
1. CC(=O)OCC1OC(n2c(=O)n(-c3ccccc3)c(=O)c3ccccc32)C(OC(C)=O)C(OC(C)=O)C1OC(C)=O (stereo not given)
2. COC(=O)c1c(C(=O)OC)c2cc(C(=O)c3ccccc3)ccn2c1Cl
3. COC(=O)c1c(CC#N)cccc1CC#N
4. ON=C1CCC(c2ccccc2)CC1 (stereo not given)
5. CC(=O)/C=C/c1ccc(C2CC(C)=Nc3c(ccc4c3C(=O)c3ccccc3C4=O)N2)cc1 (stereo not given)
6. CS(=O)c1ccc(COP(N)(=O)N(CCCl)CCCl)cc1 (stereo not given)
7. N#CC12C3C4CC5C6C4C1C6C(O)(C53)N2Cc1ccccc1 (stereo not given)

["> 100 µM", "89.1 µM", "> 100 µM", "> 100 µM", "> 100 µM", "> 100 µM", "> 100 µM"]

----------
System: MDA-MB-435
Assign GI50 to each entry below.

O=C1c2ccccc2-c2c1c1ccccc1c(=O)n2CCNCCNCCn1c2c(c3ccccc3c1=O)C(=O)c1ccccc1-2 ... 0.97 µM

Required: GI50, one value per molecule below.
1. Fc1ccc(-c2ccc(-c3nnc(-c4cc(F)c(Cl)cc4Cl)o3)o2)cc1Cl
2. C=C(CN1CCc2ccccc2C1)c1ccc(C(=O)Nc2ccc(N)cc2)cc1
3. O=C(Nc1ccc(Cl)cc1)c1cc2ccccc2cc1O

1: 34.6 µM; 2: 3.11 µM; 3: 3.84 µM

----------
Hi there, I'd appreciate the recorded TGI for every entry that follows.
Test system: BT-549 breast
TEST DESCRIPTION: NCI tumour cell line growth inhibition, 48 h

Dear colleague, could you send me TGI for each of the items below? Thanks.
1. O=C1c2ccccc2-c2ccc(N=[N+]([O-])c3ccc4c(c3)C(=O)c3ccccc3-4)cc21
2. CC(C)(O)C1OCC(C2CCC3(C)C4=CCC5C(C)(C)C(O)CCC5(C)C4CCC23C)CC1O (centres undefined)

1: > 100 µM; 2: 24.8 µM

Go through the items and report each one's TGI.
1. CC(=O)OCC1OC(O[C@@H]2c3c(O)c4c(c(O)c3C3=C(NN(c5ccc([N+](=O)[O-])cc5[N+](=O)[O-])[Se]3=O)[C@@]2(C)O)C(=O)c2ccccc2C4=O)C(OC(C)=O)C(OC(C)=O)C1OC(C)=O (some centres undefined)
2. O=C(O)CN1CCN(CC(=O)O)CCN(CC(=O)O)CCN(CC(=O)O)CC1

4.23 µM
> 100 µM

// for each compound below, give its TGI
1. Cc1nc2cccc(NCc3ccc(C(=O)NO)cc3)c2c(=O)n1-c1ccccc1
2. S=C(Nc1ccc(Cl)cc1)Nc1ccc(-c2nc3ccccc3[nH]2)cc1
3. CC(C)/C=N\n1c(N)c(C#N)c(C#N)c1C(C)C
4. O=C(/C=C/c1ccc(O)cc1)NCCc1ccc(O)cc1

8.1 µM
53.1 µM
> 100 µM
> 12.5 µM

Need TGI, item CCCCc1c2c(nc3c1CCC/C3=C\c1ccccc1)C(=O)C(CN(C)C)CC2 (centres undefined)
19.8 µM

----------
For each entry below, report its TGI value.
Tested on: MOLT-4 leukemia
TEST DESCRIPTION: NCI tumour cell line growth inhibition, 48 h

O=[N+]([O-])/C=C/c1c[nH]c2ccccc12 ... 35.5 µM
[N-]=[N+]=Nc1ccc2c(c1)Sc1ccccc1N2CCCCCl ... > 100 µM
COC(=O)/C(=C\c1c(C)[nH]c2ccccc12)S(=O)(=O)c1ccccc1 ... > 100 µM
O=S(O)c1cc(Cl)cc(Cl)c1O ... > 100 µM
O=C1CCC2SC1CCC2=O ... > 100 µM

Provide TGI for all items below, preserving their order.
1. CC(NNC(=S)N1CCCCCC1)c1ccc2ccccc2n1 (stereo not given)
2. CC1(O)/C(=N/O)CC2CC1C2(C)C (stereo not given)
3. C=C[C@@]1(C)CC(=O)[C@]2(O)[C@@]3(C)[C@@H](OC(C)=O)CCC(C)(C)[C@@H]3[C@H](OC(C)=O)[C@H](OC(C)=O)[C@@]2(C)O1
4. COC(=O)c1ccc(N=NN(C)CO)cc1

> 55.5 µM
> 100 µM
> 100 µM
> 100 µM

Provide reported TGI for each item, in the same order as listed.
1. c1ccc(N=C2c3ccccc3C3=NCCCN32)cc1
2. CCOC(=O)Oc1c(OC)cc(C(=O)O[C@@H]2C[C@@H]3CN4CCc5c([nH]c6cc(OC)ccc56)[C@H]4C[C@@H]3[C@H](C(=O)OC)[C@H]2OC)cc1OC
3. Cc1sc2nc3n(c(=O)c2c1C)N=C(c1ccc(Cl)cc1)CS3

["> 100 µM", "23.3 µM", "> 100 µM"]

Look at each compound and report its TGI.
1. Cc1ccc(S(=O)(=O)N2CCCCN(S(=O)(=O)c3ccc(C)cc3)Cc3ccccc3OCCOCCOc3c4cccc3Cc3cccc5c3OCCOCCOc3ccccc3CN(S(=O)(=O)c3ccc(C)cc3)CCCN(S(=O)(=O)c3ccc(C)cc3)Cc3ccccc3OCCOCCOc3c(cccc3C4)Cc3cccc(c3OCCOCCOc3ccccc3C2)C5)cc1
2. COC(=O)C1(O)c2ccccc2N=C2C(=O)c3ccccc3N21 (stereo not given)
3. O=c1cc(-c2cccc(OC(F)(F)F)c2)[nH]c2cc3c(cc12)OCO3
4. COc1cc2[nH]c(-c3cccc(N(C)C)c3)cc(=O)c2cc1OC
5. CC(=O)OC(C)(C)/C=C/C(=O)[C@](C)(O)[C@H]1[C@H](O)C[C@@]2(C)[C@@H]3CC=C4[C@@H](C[C@H](O)C(=O)C4(C)C)[C@]3(C)C(=O)C[C@]12C
6. CC(=O)Nc1ccc(C2[C@H]3C(=O)N(c4ccc(Cc5ccc(N6C(=O)[C@@H]7ON(c8ccccc8)C(c8ccc(NC(C)=O)cc8)[C@@H]7C6=O)cc5)cc4)C(=O)[C@H]3ON2c2ccccc2)cc1 (stereo not given in full)

> 100 µM
> 100 µM
> 100 µM
> 100 µM
2.78 µM
> 100 µM

Each compound below has a reported value. Please supply its TGI.
1. COC(=O)[C@H](Cc1ccccc1)NC(=O)N1CCN(C(=O)N[C@@H](Cc2ccccc2)C(=O)OC)CCN(C(=O)N[C@@H](Cc2ccccc2)C(=O)OC)CC1
2. N=C(N)CCCCCCCCC(=N)N

["> 100 µM", "> 100 µM"]

----------
Test system: UACC-257 melanoma
TEST DESCRIPTION: NCI tumour cell line growth inhibition, 48 h; in the data active = GI50 below about 0.43 µM; inactive = the rest
Classes to choose from: True (active), False (inactive)

O=C(Oc1ccc(CCl)cc1)c1ccccc1 ... True
N=C(N)CCCCCCCCC(=N)N ... False
Fc1ccc(-c2ccc(-c3nnc(-c4cc(F)c(Cl)cc4Cl)o3)o2)cc1Cl ... False
CN(C)CCCNC(=O)c1cc(NC(=O)c2cc(NC(=O)c3cc(NC(=O)CCc4c[nH]c5ccccc45)cn3C)cn2C)cn1C ... False

What call does the record list for [C-]#[O+].[C-]#[O+].[Ir].[O-]c1cccc2cccnc12 ?
False

# lookup: test call for C=C(CN1CCc2ccccc2C1)c1ccc(C(=O)Nc2ccc(N)cc2)cc1
False

I'd appreciate the recorded outcome for CCSc1nc(N=Cc2cccs2)c2cn[nH]c2n1 from this test.
False

In this assay, the call recorded for O=C(NOCC1CC1)c1ccc(F)c(F)c1Nc1ccc(I)cc1Cl was what?
True

State the result this test recorded for C[C@H]1CCC/C=C/[C@@H]2C[C@H](O)C[C@H]2[C@H](O)[C@@H](S(=O)CCN(C)C)CC(=O)O1 (stereo partly drawn) .
True

----------
System: NCI-H522 lung
TEST DESCRIPTION: NCI tumour cell line growth inhibition, 48 h
Kindly state TGI for each of the entries shown.

Lab note: each compound below needs its TGI filled in.
1. S=C(Nc1ccc(Cl)cc1)Nc1ccc(Cl)cc1 (tested in a mixture with another compound)
2. [N-]=[N+]=NC1C(Br)C(=O)NC(=O)N1[C@H]1C[C@H](O)[C@@H](CO)O1 (stereo partly specified)
3. O=C(NOCC1CC1)c1ccc(F)c(F)c1Nc1ccc(I)cc1Cl
4. CC1=Cc2cc3[n-]c(cc4nc(cc5[n-]c(cc1n2)cc5C)C(C)=C4CCC(=O)O)c(CCC(=O)O)c3C.[Pd+2]
5. Cc1nc2cccc(NCc3ccc(C(=O)NO)cc3)c2c(=O)n1-c1ccccc1

1. 4.37 µM
2. > 100 µM
3. 8.51 µM
4. > 26.7 µM
5. 2.61 µM

For each of the items listed, what is its TGI?
1. COc1cccc(-c2cc(=O)c3cc(N)ccc3[nH]2)c1
2. C/C=C(/C)C(=O)O[C@H]1C(C)=C[C@]23C(=O)[C@@H](C=C(COC(C)=O)[C@@H](O)[C@]12O)[C@H]1[C@@H](C[C@H]3C)[C@@]1(C)OC(=O)/C(C)=C\C
3. COc1ccc(SC(C)(SC)c2ccccn2)c(OC)n1 (stereo unspecified)
4. O=[N+]([O-])C1C2C=CC(C2)[C@H]1c1ccccc1Cl (stereo partly specified)

7.56 µM
6.07 µM
> 100 µM
> 31.6 µM

Numbers sourced from PubChem BioAssay (NCI).
